TEST_TARGET: T1, rat glucagon receptor (rat, UniProt P30082 27-485)
T1 construct: whole, on cells; Used as membranes of transiently transfected 293HEK cells; also called rGcg-R; rat Gcg-R
T1 sequence (P30082 27-485): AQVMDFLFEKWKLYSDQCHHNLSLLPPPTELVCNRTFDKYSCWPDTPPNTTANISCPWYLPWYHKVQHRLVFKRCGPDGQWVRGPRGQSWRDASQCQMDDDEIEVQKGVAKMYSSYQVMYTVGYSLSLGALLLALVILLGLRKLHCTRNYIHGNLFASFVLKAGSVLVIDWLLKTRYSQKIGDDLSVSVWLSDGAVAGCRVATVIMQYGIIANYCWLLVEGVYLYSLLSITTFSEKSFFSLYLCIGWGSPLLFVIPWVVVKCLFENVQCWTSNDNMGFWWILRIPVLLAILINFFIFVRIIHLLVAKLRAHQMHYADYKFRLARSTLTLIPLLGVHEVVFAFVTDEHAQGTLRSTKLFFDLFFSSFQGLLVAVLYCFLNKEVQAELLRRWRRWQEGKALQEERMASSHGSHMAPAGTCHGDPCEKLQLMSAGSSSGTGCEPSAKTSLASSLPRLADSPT
PROTOCOL_SUMMARY: I-125-Gcg competition SPA, membranes of 293HEK cells expressing rGcg-R
Ki: recorded values

# count of solved cases: 4
YXQGTFTSDYSKYLDXKKAXEFVAWLLEE (Aib at positions 2 and 16; K20 epsilon-amino group conjugated with ([2-(2-Amino-ethoxy)-ethoxy]-acetyl)2-(γGlu)1-CO-(CH2)18-CO2H; C-terminal acid) [Example 7] :: 1.38 nM
YXQGTFTSDYSKYLDXKKAXEFVEWLLETGPSSGAPPPS (Aib at positions 2 and 16; K20 epsilon-amino group conjugated with ([2-(2-Amino-ethoxy)-ethoxy]-acetyl)2-(γGlu)2-CO-(CH2)18-CO2H; C-terminal primary amide) [Example 2] :: 5.59 nM
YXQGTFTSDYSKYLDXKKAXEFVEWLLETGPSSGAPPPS (Aib at positions 2 and 16; K20 epsilon-amino group conjugated with ([2-(2-Amino-ethoxy)-ethoxy]-acetyl)2-(γGlu)2-CO-(CH2)16-CO2H; C-terminal primary amide) [Example 1] :: 9.78 nM
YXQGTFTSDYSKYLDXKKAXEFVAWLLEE (Aib at positions 2 and 16; K20 epsilon-amino group conjugated with ([2-(2-Amino-ethoxy)-ethoxy]-acetyl)2-(γGlu)1-CO-(CH2)16-CO2H; C-terminal acid) [Example 6] :: 0.98 nM

Here's the next entry for you.
Ask: Report Ki for YXQGTFLSDYSKYLDXKKAXEFVEWLLETGPSSGAPPPS (Aib at positions 2 and 16; K20 epsilon-amino group conjugated with ([2-(2-Amino-ethoxy)-ethoxy]-acetyl)2-(γGlu)2-CO-(CH2)16-CO2H; C-terminal primary amide) [Example 3]
Reply: 1.56 nM
